- Run description: thallium flux activation in parental CHO cells, counter-screen for KCNQ1 potentiator project (AID 493006);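 on activation: fluorescence ratio of max minus min over baseline after K+ and Tl+ depolarization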
- Condition set: parental CHO-K1 cells, FluxOR thallium flux, at 10 µM; hits give high values
Activity calls are given as the source filed them.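 How the source made its calls: active means duplicate-averaged activation above buffer control mean plus 5 SD of those controls; inactive means the rest.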
Endpoint name: activation

Record excerpt, results attached:
Molecule	activation
CC(C)CCn1c(=S)[nH]c2ncccc2c1=O	152% (active)
Cc1cc(O)ccc1N=Cc1c(C(F)(F)F)[nH][nH]c1=O	inactive
N#CC1=C(Nc2ccccc2)SC=C(c2ccc(Br)cc2)N=C1N1CCOCC1	inactive
CCOc1ccc(C(=O)NC(=S)N(Cc2ccccc2)Cc2ccccc2)cc1	395% (active)
CC1Cc2ccccc2N1C(=S)NC(=O)c1cccc(Br)c1 (stereo unspecified)	726% (active)

Turning now to a further molecule:
Record CNCc1ccccc1Sc1cccc2ccccc12 . Reported activation: inactive

Numbers sourced from PubChem BioAssay.
